Below: a set of entries, each annotated with reported self-cleavage.
B1: CPEB3 Ribozyme (parent)
chain: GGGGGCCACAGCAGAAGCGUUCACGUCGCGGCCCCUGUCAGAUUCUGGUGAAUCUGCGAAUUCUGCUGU

variants of: B1; test: self-cleavage, relative activity (ratio to wild type); higher = more cleavage; co-transcriptional
value_type: self-cleavage

variant_notation="C18G U43A" value_observed=0.114
variant_notation="U44A A60U" value_observed=0.353
variant_notation="G3A U44G" value_observed=0.331
variant_notation="G30U G41U" value_observed=0.229
variant_notation="A40G G41C" value_observed=0.433
variant_notation="G17C U62A" value_observed=0.171
variant_notation="U49C U61G" value_observed=0.829
variant_notation="U44C G48C" value_observed=1
variant_notation="A8G C39G" value_observed=0.537
variant_notation="G1U C18G" value_observed=0.115
variant_notation="G4U G30U" value_observed=0.103
variant_notation="A15U G56A" value_observed=0.648
variant_notation="G2U C6G" value_observed=0.0267
variant_notation="U36C C45G" value_observed=0.866
variant_notation="G2U C22G" value_observed=0.039
variant_notation="A8C G11A" value_observed=0.923
variant_notation="G3A U21C" value_observed=0.371
variant_notation="A51C C66A" value_observed=0.628
variant_notation="G25A G31C" value_observed=0.147
variant_notation="A40G G47U" value_observed=1.02
variant_notation="A13C U62G" value_observed=0.355
variant_notation="C39A C66A" value_observed=0.435
variant_notation="G4C C7A" value_observed=0.0992
variant_notation="C18A G50A" value_observed=0.191
variant_notation="G58A C63G" value_observed=0.757
variant_notation="U62C U64C" value_observed=0.46
variant_notation="G3C G25U" value_observed=0.047
variant_notation="G50A U53G" value_observed=0.9
variant_notation="A16U U64A" value_observed=0.588
variant_notation="U44C C57G" value_observed=0.362
variant_notation="G2U G58U" value_observed=0.0822
variant_notation="G2C U53G" value_observed=0.0245
variant_notation="C7A U62A" value_observed=0.275
variant_notation="G3U C66U" value_observed=0.151
variant_notation="C33U U46C" value_observed=0.977
variant_notation="A16C U53G" value_observed=0.251
variant_notation="G4A U36C" value_observed=0.792
variant_notation="C7A C33A" value_observed=0.119
variant_notation="U38G A51C" value_observed=0.293
variant_notation="C29G U53G" value_observed=0.389
variant_notation="G1C U64A" value_observed=0.236
variant_notation="C35G G41U" value_observed=0.341
variant_notation="G58A U61G" value_observed=0.861
variant_notation="G2C C63G" value_observed=0.0678
variant_notation="G14U C29U" value_observed=0.111
variant_notation="G11C C35G" value_observed=0.209
variant_notation="A52U A60G" value_observed=0.808
variant_notation="G17U U49C" value_observed=0.554
variant_notation="G2U C57G" value_observed=0.0241
variant_notation="U21G U55G" value_observed=0.346
variant_notation="A15C C18A" value_observed=0.174
variant_notation="G17U G30U" value_observed=0.168
variant_notation="A59G U64C" value_observed=0.873
variant_notation="G14U C32U" value_observed=0.816
variant_notation="G3U C7U" value_observed=0.0677
variant_notation="A23U G30A" value_observed=0.96
variant_notation="A8G G17U" value_observed=0.103
variant_notation="C12A G65U" value_observed=0.932
variant_notation="C18A U46G" value_observed=0.219
variant_notation="G41C A42C" value_observed=0.26
variant_notation="G17U A42U" value_observed=0.334
variant_notation="C54A U62G" value_observed=0.58
variant_notation="G41U A59C" value_observed=0.412
variant_notation="C24A C32A" value_observed=0.31
variant_notation="C29G G56A" value_observed=0.299
variant_notation="A16C G28C" value_observed=0.133
variant_notation="G17C G65U" value_observed=0.131
variant_notation="G25U U55A" value_observed=0.154
variant_notation="C32G U62G" value_observed=0.271
variant_notation="A15G C27U" value_observed=0.204
variant_notation="G2A A42C" value_observed=0.0844
variant_notation="G3C U21G" value_observed=0
